Reported values of (%)APPI Toxicity for individual entries
- Tested on: CHO-K1 cells
- assay procedure: Toxicity in RRA (loss of luciferase signal)
- applied conditions: Conc 20 μg/ml; toxicity = loss of signal (<0.75 fold increase)

CC[C@H](C)[C@@H](CO)N(Cc1ccc(OC)c(OC)c1)S(=O)(=O)c1ccc(Cl)cc1
1 (1=non-toxic)
CCCCC(CO)NS(=O)(=O)c1ccccc1F (stereo not drawn)
1 (1=non-toxic)
CC[C@H](C)[C@@H](CO)N(CC#Cc1ccccc1)S(=O)(=O)c1ccc(Cl)cc1
1 (1=non-toxic)
O=S(=O)(N[C@H](CO)C1CCCCC1)c1ccc(Br)cc1
1 (1=non-toxic)
CC[C@H](C)[C@@H](CO)N(Cc1ccc(-c2ccccc2)cc1)S(=O)(=O)c1ccc(Cl)cc1
1 (1=non-toxic)

The compound CC(C)[C@@](C)(CO)NS(=O)(=O)c1ccc(Cl)cc1 showed (%)APPI Toxicity equal to 1 (1=non-toxic)

Reported (%)APPI Toxicity ( CSc1ccc([C@H](O)[C@H](CO)NS(=O)(=O)c2ccccc2F)cc1 ) = 1 (1=non-toxic)

(%)APPI Toxicity measured on CC[C@H](C)[C@@H](CO)NS(=O)(=O)c1cc(Cl)ccc1OC = 1 (1=non-toxic)

Lookup result for CC(C)(C)[C@@H](CO)NS(=O)(=O)c1ccc(Cl)c(Cl)c1 ; measured (%)APPI Toxicity: 1 (1=non-toxic)

Reported (%)APPI Toxicity for CC[C@H](C)[C@@H](CO)N(CC1CCC1)S(=O)(=O)c1ccc(Cl)cc1 was 1 (1=non-toxic)

// (%)APPI Toxicity value for O=S(=O)(N[C@H](CO)CC1CCCCC1)c1cccc(Cl)c1 : 1 (1=non-toxic)
